Trimeric HA Binding RLU: recorded values
target: recombinant soluble homotrimeric HA of A/California/4/09 (H1N1) (Influenza A virus A/California/04/2009 (H1N1)); assay: HA microarray, BCC supernatant; settings: remark: other sources report otherwise

- BINDER: "TCN-543 (5081_G23) (antibody, V domains shown) VH: QVHLVQSGAEVRKPGDSVKVSCKTSGYTFSTYPVAWVRQVPGQGLEWMGWISTYNGNTNFAQNFQGRVTLTTDTTTNTAYMEVRSLKFDDTAVYYCARVEGSYRDFWNNQNRFDPWGQGTLVTVSS VL: SYVLTQPPSVSVAPGQTARISCGGSNIGGKSVHWYQQKPGQAPVLVVYDDSGRPSGIPERFSGSNSGDTATLTISRVEAGDEADYFCQVWDNFGGVFGTGTKVTVL"
  Trimeric HA Binding RLU [RLU]: 13100
- BINDER: "TCN-552 (5249_I23) (antibody, V domains shown) VH: QVQVVQSGAEVKKPGSSVRVSCQASGGTFMNYAIIWVRRAPGQGLEWMGGIIPVFPTPNYAQMFQGRVTISTDESRSTSFLELTNLRYEDTAVYYCARRIYHGGNSGFDFWGQGTLVTVSS VL: EIVLTQSPATLSLSPGERATLSCRASQSVGNYLAWYQQKPGQAPRLLIYDSSNRAPGIPARFSGSGSGTDFTLTISSLAPEDFAVYYCQQRSKWPPMYSFGHGTKLEIK"
  Trimeric HA Binding RLU [RLU]: 35300
